Data provenance is patent US5612360A.

Ki values by entry
# Assayed system: angiotensin II receptor
# Measurement description: Adrenal Glomerulosa Test System: displacement of I^125-angiotensin II binding to rat adrenal membranes
# Particulars: I^125-angiotensin II 0.1 nM, room temperature, 90 minutes, KI by Cheng Prusoff equation

{"columns": ["Compound", "Unit abbreviation", "Ki"],
 "data": [
  ["CCCCCCC(c1nnn[nH]1)n1cnc2cc(-c3ccccc3-c3nnn[nH]3)ccc21 (centres unmarked)", "nM", 62],
  ["CCCCCCC(C(=O)O)n1c(C(F)(F)F)nc2cc(-c3ccccc3-c3nn[nH]n3)ccc21 (centres unmarked)", "nM", 85],
  ["CCCCCCC(C(=O)N[C@@H](CC(=O)O)C(=O)O)n1cnc2cc(-c3ccccc3-c3nn[nH]n3)ccc21 (some centres unmarked)", "nM", 100],
  ["CCCCCCC(C(=O)N(C)CC(=O)O)n1cnc2cc(-c3ccccc3-c3nn[nH]n3)ccc21 (centres unmarked)", "nM", 81.4],
  ["CCCCCCC(C(=O)N1CCC1C(=O)O)n1cnc2cc(-c3ccccc3-c3nn[nH]n3)ccc21 (centres unmarked)", "nM", 69]
]}
